Some molecules, each annotated with its measured difference in startle response.
Test system: Danio rerio larvae (5 dpf)
Test: difference in startle response vs DMSO (percentage points); higher = stronger startle than DMSO
Conditions: 10 µM; exposure time 6 h
Structures can show the parent of a compound that is named as a salt.
Keep it simple and answer with nothing but the number.

CCOC(=O)[C@H](CCc1ccccc1)N[C@@H](C)C(=O)N1Cc2cc(OC)c(OC)cc2C[C@H]1C(=O)O [Moexipril (hydrochloride)] : -4.62
C=CC[N+]1([C@H]2C[C@H]3[C@@H]4CC[C@H]5C[C@H](O)[C@@H](N6CCOCC6)C[C@]5(C)[C@H]4CC[C@]3(C)[C@H]2OC(C)=O)CCCC1 [Rocuronium (bromide)] : -3.01

## Task Read off the recorded difference in startle response for O=C(O)c1ccc(-n2nc(-c3ccccc3O)nc2-c2ccccc2O)cc1
## Result -2.31

## Task Read off the recorded difference in startle response for CO[C@H]1C[C@@H]2CC[C@@H](C)[C@@](O)(O2)C(=O)C(=O)N2CCCC[C@H]2C(=O)O[C@H]([C@H](C)C[C@@H]2CC[C@@H](OCCO)[C@H](OC)C2)CC(=O)[C@H](C)/C=C(\C)[C@@H](O)[C@@H](OC)C(=O)[C@H](C)C[C@H](C)/C=C/C=C/C=C/1C
## Result 1.06

## Task Read off the recorded difference in startle response for NNCCc1ccccc1 [Phenelzine (sulfate)]
## Result 2.45

## Task Read off the recorded difference in startle response for CN(C)CCCN1c2ccccc2CCc2ccc(Cl)cc21 [Clomipramine (hydrochloride)]
## Result 1.97

## Task Read off the recorded difference in startle response for N[C@@H](CC(=O)N1CCn2c(nnc2C(F)(F)F)C1)Cc1cc(F)c(F)cc1F [(-)-Sitagliptin (phosphate)]
## Result -0.289

## Task Read off the recorded difference in startle response for NCCS [Cysteamine (hydrochloride)]
## Result 3.78

###

Test system: Danio rerio larvae (5 dpf)
Experiment: difference in excitability vs DMSO (percentage points); higher = more excitable than DMSO
Settings: 10 µM; exposure time 6 h
Counter-ions that a name gives are not always drawn.
Grouping by measured difference in excitability is done with the following cut points: 1 = under 3, 2 = from 3 up to 10, 3 = 10 and over

Example entries begin here.
NC1=NCC2c3ccccc3Cc3ccccc3N12 (centres undefined) [Epinastine (hydrochloride)] : 3
C[C@@H]1CCN(C(=O)CC#N)C[C@@H]1N(C)c1ncnc2[nH]ccc12 : 1
O=C(C1CCCCC1)N1CC(=O)N2CCc3ccccc3C2C1 (centres undefined) : 3
CNC(=O)c1ccccc1Sc1ccc2c(/C=C/c3ccccn3)n[nH]c2c1 : 2
CCOC(=O)c1ccc(C#Cc2ccc3c(c2)C(C)(C)CCS3)nc1 : 3

## Task Classify this molecule: Cc1c2oc3c(C)ccc(C(=O)N[C@@H]4C(=O)N[C@H](C(C)C)C(=O)N5CCC[C@H]5C(=O)N(C)CC(=O)N(C)[C@@H](C(C)C)C(=O)O[C@@H]4C)c3nc-2c(C(=O)N[C@@H]2C(=O)N[C@H](C(C)C)C(=O)N3CCC[C@H]3C(=O)N(C)CC(=O)N(C)[C@@H](C(C)C)C(=O)O[C@@H]2C)c(N)c1=O
## Result 2

## Task Classify this molecule: Nc1ncn([C@H]2C[C@H](O)[C@@H](CO)O2)c(=O)n1
## Result 1

## Task Classify this molecule: O=C1CN(/N=C/c2ccc(-c3ccc([N+](=O)[O-])cc3)o2)C(=O)N1 [Dantrolene (sodium salt)]
## Result 2
